test: Restrictive medium S. cerevisiae growth inhibition, OD615, pilot screen of yeast lifespan reduction project, restrictive growth control (AID 706);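 note: modified DeaD lifespan yeast strain shifted to restrictive glucose medium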
measurement-setup: OD615, 48 h, at 10 µM, active compounds read high
quantity-measured: growth inhibition (%)
Lab book: enter the figure in %, no units written.

Some entries whose results are on file:
[[record]]
compound_structure_string = "O=C(CSc1nc2c(cnn2-c2ccc(F)cc2)c(=O)[nH]1)N1CCOCC1"
observed_measurement = -19.8

[[record]]
compound_structure_string = "Cc1ccc(-c2nc(CS(=O)(=O)CC(=O)N3CCCCCC3)c(C)o2)cc1"
observed_measurement = 0.63

[[record]]
compound_structure_string = "COC(=O)C(C(=O)OC)C(C(C)C)C(C(=O)OC)C(=O)OC"
observed_measurement = -9.04

[[record]]
compound_structure_string = "CC1CCN(c2ncnc3c2cnn3-c2ccccc2)CC1"
observed_measurement = 10.9

[[record]]
compound_structure_string = "Cc1cc(C)cc(NC(=O)CSc2nnc(-c3ccccc3)n2N)c1"
observed_measurement = 7.08


Please look at the following molecule next.
Identify the reported growth inhibition for the following entry. COc1cc(OC)cc(-c2nc(-c3ccc(Br)cc3)no2)c1
-13.2

---

test: RAM signaling pathway blockade in yeast – S. cerevisiae, Pdr1DBD-CYC8 efflux-inhibited sensitized strain, primary screen (AID 1298);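 note: 0% = DMSO untreated cells without growth and 100% = 10 µM 1-NA-PP1 full growth; higher means more yeast growth rescued from 5-FOA killing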
measurement-setup: S. cerevisiae cbk1-as DSE1-URA3 strain, 5-FOA growth OD615, 2 d; at 50 µM; active compounds read high
quantity-measured: RAM network inhibition (%)
Lab book: enter the figure in %, no units written.

Some entries whose results are on file:
[[record]]
molecule = "Cn1c(NC(=O)CCc2ccccc2)cc(=O)n(C)c1=O"
quantity_measured = "RAM network inhibition"
observed_measurement = -0.05

[[record]]
molecule = "COC(=O)C1CCN(C(c2cc(OC)c(OC)c(OC)c2)c2sc3nc(C)nn3c2O)CC1 (centres undefined)"
quantity_measured = "RAM network inhibition"
observed_measurement = 3.91

[[record]]
molecule = "O=C(CN1CCOc2ccccc21)N1CCCC1"
quantity_measured = "RAM network inhibition"
observed_measurement = 1.32

[[record]]
molecule = "O=C(c1cc(-c2cccc(O)c2)on1)N1CCOCC1"
quantity_measured = "RAM network inhibition"
observed_measurement = 2.22

[[record]]
molecule = "COc1cccc(C2(O)CCN(C(=O)c3cccs3)CC2)c1"
quantity_measured = "RAM network inhibition"
observed_measurement = 5.17

[[record]]
molecule = "CC(=O)Nc1cccc(N(C)C)c1"
quantity_measured = "RAM network inhibition"
observed_measurement = 1.55

[[record]]
molecule = "Cc1ccc(-c2nnc(N3CCCCC3)c3ccccc23)cc1S(=O)(=O)N1CCN(C)CC1"
quantity_measured = "RAM network inhibition"
observed_measurement = -2.14

[[record]]
molecule = "Cc1ccc(S(=O)(=O)N2CCCC(C(=O)O)C2)s1 (centres undefined)"
quantity_measured = "RAM network inhibition"
observed_measurement = -1.67

[[record]]
molecule = "CCOC(=O)N1CCN(C(=O)C2CCN(Cc3nc(-c4ccccc4C)oc3C)CC2)CC1"
quantity_measured = "RAM network inhibition"
observed_measurement = 1.63

[[record]]
molecule = "COc1ccccc1N1CCN(C(=O)CN(c2ccccc2OC)S(=O)(=O)c2ccccc2)CC1"
quantity_measured = "RAM network inhibition"
observed_measurement = 4.88


Identify the reported RAM network inhibition for the following entry. CC1CCN(S(=O)(=O)c2ccc(NC(=O)c3cccs3)cc2)CC1
3.83

Identify the reported RAM network inhibition for the following entry. CCN(CC)CCCNC(=O)C1c2ccccc2C(=O)N(C)C1c1ccc(OC)cc1 (centres undefined)
2.54

Identify the reported RAM network inhibition for the following entry. COCc1cc(C)nc(N2CCN(c3ccccc3)CC2)c1C#N
6.31

Identify the reported RAM network inhibition for the following entry. Cc1c(NC(=O)OCc2ccccc2)c(=O)n(-c2ccccc2)n1C
7.69

Identify the reported RAM network inhibition for the following entry. Cc1ccc2oc(=O)c3cnn(CC(=O)N4CCN(c5ccccn5)CC4)c3c2c1
-0.31

---

test: inhibitors of the yeast RAM network, pilot screen, dse1pr::URA3 reporter, 5-FOA selection (AID 869);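 note: 0% = DMSO wells with no growth and 100% = 10 µM 1-NA-PP1 with full growth; RAM network block rescues cells from 5-FOA so hits raise OD615 growth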
measurement-setup: S. cerevisiae dse1pr::URA3 5-FOA growth, OD615, 2 d; at 10 µM; active compounds read high; strain carries analog-sensitive mutant Cbk1 kinase
# inhibition annotations
Lab book: enter the figure in %, no units written.

[[record]]
molecule = "Cc1cc(C)cc(N(CC(=O)N2CCn3c2nc2ccccc23)S(=O)(=O)c2c(C)noc2C)c1"
observed_measurement = 1.79

[[record]]
molecule = "COC(=O)c1ccccc1NC(=O)CSc1nc(N)cc(N)n1"
observed_measurement = 0.39

[[record]]
molecule = "COc1ccc(OC)c(C2=Nn3c(nnc3-c3ccncc3)SC2)c1"
observed_measurement = 0.84


Identify the reported inhibition for the following entry. Cc1ccc(-c2csc(N3CCC(C(N)=O)(N4CCCCC4)CC3)n2)cc1
-0.445

Identify the reported inhibition for the following entry. Cn1c(NC(=O)CC(C)(C)C)cc(=O)n(C)c1=O
3.15

Identify the reported inhibition for the following entry. Cc1ccc(C(=O)N(Cc2nc(-c3ccc(C)cc3)no2)C(C)C)cc1
1.33

Identify the reported inhibition for the following entry. O=C1CC(c2ccccc2)CN1S(=O)(=O)c1ccccc1 (centres undefined)
0.085

Identify the reported inhibition for the following entry. CC(=O)c1c(N2CCN(c3ccccc3)CC2)nc(=S)n(-c2ccccc2)c1C
0.91

---

test: OD615 S. cerevisiae growth inhibition, permissive medium, pilot counter-assay, permissive growth control for S. cerevisiae lifespan shortening project (AID 705)
measurement-setup: OD615, 24 h, at 10 µM, active compounds read high
Active and inactive are the calls of the source.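 The calls were made as follows: active = growth inhibition above 25% in both replicates, a cutoff set 3 SD above the mean; inconclusive = above 25% in only one replicate; inactive = the rest.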
quantity-measured: growth inhibition

Some entries whose results are on file:
[[record]]
compound = "COc1ccc(-c2nnc3ccc(SCC(=O)N4CCCC4)nn23)cc1"
quantity_measured = "growth inhibition"
observed_measurement = "3.94% (inactive)"

[[record]]
compound = "O=C(O)CN(Cc1ccco1)S(=O)(=O)c1ccccc1"
quantity_measured = "growth inhibition"
observed_measurement = "-15.2% (inactive)"

[[record]]
compound = "COc1ccc2[nH]cc(CCNC(=O)C3CCCNC3=O)c2c1 (configuration not stated)"
quantity_measured = "growth inhibition"
observed_measurement = "-14.6% (inactive)"

[[record]]
compound = "CCCc1nnc(NC(=O)CC(=O)OCC)s1"
quantity_measured = "growth inhibition"
observed_measurement = "6.47% (inactive)"

[[record]]
compound = "CCN(CC)Cc1c(O)ccc2c(-c3ccccc3)cc(=O)oc12"
quantity_measured = "growth inhibition"
observed_measurement = "-5.29% (inactive)"


Identify the reported growth inhibition for the following entry. CC(C)c1ccc(NC(=O)C(c2ccccc2)N2CCOCC2)cc1 (configuration not stated)
-0.695% (inactive)

Identify the reported growth inhibition for the following entry. O=C(Cn1cnc2c(nnn2-c2ccccc2)c1=O)N1CCOCC1
-5.42% (inactive)

Identify the reported growth inhibition for the following entry. COc1cc2[nH]c(=O)n(CCC(=O)NC3CCN(Cc4ccccc4)CC3)c(=O)c2cc1OC
-0.585% (inactive)

Identify the reported growth inhibition for the following entry. Cc1cc(NC(=O)NC2(C(F)(F)F)Oc3ccc(Cl)cc3O2)no1 (configuration not stated)
-3.33% (inactive)

Identify the reported growth inhibition for the following entry. COC(=O)c1ccccc1NC(NC(=O)c1ccco1)C(=O)c1ccc(C)cc1 (configuration not stated)
-0.235% (inactive)

Identify the reported growth inhibition for the following entry. CCc1nnc(NC(=O)c2cccs2)s1
-21.3% (inactive)

Identify the reported growth inhibition for the following entry. Cc1cc(N2CCCc3ccccc32)n2ncnc2n1
-2.53% (inactive)

---

test: inhibitors of the yeast RAM network, pilot screen, dse1pr::URA3 reporter, 5-FOA selection (AID 869);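 note: 0% = DMSO wells with no growth and 100% = 10 µM 1-NA-PP1 with full growth; RAM network block rescues cells from 5-FOA so hits raise OD615 growth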
measurement-setup: S. cerevisiae dse1pr::URA3 5-FOA growth, OD615, 2 d; at 10 µM; active compounds read high; strain carries analog-sensitive mutant Cbk1 kinase
The source made the active and inactive calls.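 The calls were made as follows: active = inhibition over a set limit, the all-compound mean plus 3 SD, in both replicate runs; inconclusive = over that limit in just one replicate run; inactive = at or under that limit in both runs.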
quantity-measured: inhibition

Identify the reported inhibition for the following entry. CCSc1nnc(Cn2c(=O)sc3ccccc32)n1-c1ccc(OC)cc1
-0.94% (inactive)

Identify the reported inhibition for the following entry. CCC(C)NC(=O)CNC(=O)Cn1c(C)cc2ccccc2c1=O (stereo not drawn)
0.04% (inactive)

---

test: growth suppression of PTEN-deleted HCT116, pilot screen, cell-based, HCT116 clonal line, CellTiter-Glo (AID 824);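 note: 0% = 20 µM Hyamine control and 100% = vehicle cell control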
measurement-setup: 60 h, at 10 µM, active compounds read low
Results filed as inconclusive are left out.
quantity-measured: viability (%)
Lab book: enter the figure in %, no units written.

[[record]]
molecule = "CC(CCc1ccccc1)C(=O)NO (stereo unspecified)"
observed_measurement = 91.6


Identify the reported viability for the following entry. CCCS(=O)(=O)c1nc(S(=O)(=O)c2ccc(C)cc2)c(N2CCCC2)s1
96.3

Identify the reported viability for the following entry. COc1cccc(NC2=CC(=O)CC(C)(C)C2)c1
99.2

Identify the reported viability for the following entry. O=C(Nc1nc(-c2cc3ccccc3oc2=O)cs1)c1ccco1
100

Identify the reported viability for the following entry. Nc1nc(SCC(=O)NCCCO)nc2sc3c(c12)CCC3
94

Identify the reported viability for the following entry. CC1CC(C)CN(C(=O)c2cn(C)c3ccc(S(=O)(=O)N(C)C)cc3c2=O)C1 (stereo unspecified)
104
